System: SW-620 colon
procedure_details: NCI-60 one-dose screen, 48 h (100 = growth as untreated, 0 = no growth, -100 = all killed)
condition_info: 10 µM unless noted
Protocol: Growth inhibition of the SW-620 human tumor cell line is measured as a screen for anti-cancer activity. Cells are grown in 96 well plates and exposed to the test compound for 48 hours. Compounds are tested at a single concentration, which is 10^-5 M for most compounds. The reported endpoint is percent growth (GI% or GIPRCNT), where numbers from 0 - 100% represent growth inhibition, and numbers from -100% - 0 represent cell death. For example, a value of 40 represents 60% growth inhibition. […]
Compounds without any hit were thinned out: in the full panel of roughly 83,000, 20% have a hit.
# reported growth; entries follow
measure: growth (%)

| compound_string | measure | readout_number |
| --- | --- | --- |
| C[C@]12C[C@H](c3ccoc3)OC(=O)[C@H]1CC[C@@]1(C)[C@@H]2[C@H]2C=C[C@]1(O)C(=O)O2 | growth | 109 |
| CSc1cc(/C=C(\C)[C@@H]2C[C@@H]3O[C@]3(C)CCC[C@H](C)[C@H](O)[C@@H](C)C(=O)C(C)(C)[C@@H](O)CC(=O)O2)n(CCNC(=O)OC(C)(C)C)n1 | growth | 31.3 |
| CN1CCN(c2ccc(Cl)cc2)CC1 | growth | 46.5 |
| ClCc1ccc(Cl)c(Cl)c1 | growth | 97 |
| CC[C@H](C)[C@H](NC(=O)c1ncccn1)C(=O)N(C)[C@H](C[C@@H](OC(C)=O)c1nc(C(=O)N[C@@H](Cc2ccccc2)C[C@H](C)C(=O)OC)cs1)C(C)C | growth | 25.8 |
| N#CC(C#N)=C(C#N)C#N | growth | 104 |
| CCOP(=O)(OCC)C(=O)N(CC)CC | growth | 99.6 |
| C[C@]12CC[C@H]3[C@@H](C[C@@H]4SC(Nc5cccc(F)c5)=N[C@@]45CC(=O)CC[C@]35C)[C@@H]1CCC2=O | growth | 4.62 |
| COC(=O)C1=CO[C@@H](C)[C@@H]2CN3CCc4c([nH]c5cc(OC)ccc45)[C@@H]3C[C@H]12 | growth | 99.9 |
